// provenance: the supplement of paper PMC9233669

Test system: biotinyl-Val-oxazolone
method-summary: self-aminoacylation, catalytic enhancement (BVO) (fold over background); higher = more active; k-Seq, kA / k0A0; sequences stand for … in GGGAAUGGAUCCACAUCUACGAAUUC…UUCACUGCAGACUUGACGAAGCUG
This sample holds only a part of the variants without activity.
Tick Met if self-aminoacylation is 3 or greater. Tick Not met if self-aminoacylation is less than 3.

Decide: is the reported value of self-aminoacylation for AAUCAUCUAGGUCAUCGGGUG [Fam2.2 aminoacylation ribozyme variant] equal to or greater than 3?
Met

Decide: is the reported value of self-aminoacylation for AUGUUUGCUAAUAGUCGCUAG [Fam3.1 aminoacylation ribozyme variant] equal to or greater than 3?
Not met

Decide: is the reported value of self-aminoacylation for AUCCACCUAUGUCAUCGGGUG [Fam2.2 aminoacylation ribozyme variant] equal to or greater than 3?
Met

Decide: is the reported value of self-aminoacylation for AUUGACCUAGGUCAUCGGGUA [Fam2.2 aminoacylation ribozyme variant] equal to or greater than 3?
Met

Decide: is the reported value of self-aminoacylation for AUUCAGCUGGGUCAUCGGGUG [Fam2.2 aminoacylation ribozyme variant] equal to or greater than 3?
Met

Decide: is the reported value of self-aminoacylation for AUUCACGUAGGUCAUUGGGUG [Fam2.2 aminoacylation ribozyme variant] equal to or greater than 3?
Met

Decide: is the reported value of self-aminoacylation for CUACUUCAAUCAAUCUGUCUG [Fam1A.1 aminoacylation ribozyme variant] equal to or greater than 3?
Not met

Decide: is the reported value of self-aminoacylation for AUUCACGUAAGUCAUCGGGUG [Fam2.2 aminoacylation ribozyme variant] equal to or greater than 3?
Met

Decide: is the reported value of self-aminoacylation for CUACUUCAAUCAAUCGGUCUU [Fam1A.1 aminoacylation ribozyme variant] equal to or greater than 3?
Not met

Decide: is the reported value of self-aminoacylation for GUUCACCUUGGUCAUCGGGUG [Fam2.2 aminoacylation ribozyme variant] equal to or greater than 3?
Met

Decide: is the reported value of self-aminoacylation for CCACAUUUCAAGCAAUCGCUC [Fam1B.1 aminoacylation ribozyme variant] equal to or greater than 3?
Not met

Decide: is the reported value of self-aminoacylation for CUACUCCAAACAAUCGAUCUG [Fam1A.1 aminoacylation ribozyme variant] equal to or greater than 3?
Not met

Decide: is the reported value of self-aminoacylation for CCACACUUCAGGCAAUCGGUA [Fam1B.1 aminoacylation ribozyme variant] equal to or greater than 3?
Not met

Decide: is the reported value of self-aminoacylation for GCACACUACAAGCAAUCGGUC [Fam1B.1 aminoacylation ribozyme variant] equal to or greater than 3?
Not met

Decide: is the reported value of self-aminoacylation for AUUACCCUGGUCACCGCGUGA [Fam2.1 aminoacylation ribozyme variant] equal to or greater than 3?
Met

Decide: is the reported value of self-aminoacylation for UCACACUUCAAGCACUCGGUC [Fam1B.1 aminoacylation ribozyme variant] equal to or greater than 3?
Not met

Decide: is the reported value of self-aminoacylation for AUUCACCUAGGGCAUUGGGUG [Fam2.2 aminoacylation ribozyme variant] equal to or greater than 3?
Met

Decide: is the reported value of self-aminoacylation for CCACUCUUCAAGAAAUCGGUC [Fam1B.1 aminoacylation ribozyme variant] equal to or greater than 3?
Not met
